The measurements presented in this section are drawn from ChEMBL document CHEMBL4837181.

METHOD_NOTES: Drug metabolism in Beagle dog hepatocytes assessed as unmetabolized compound at 10 uM incubated for 120 mins by UPLC-QTOF-PDA analysis
Type: ADME, cell-based, Canis lupus familiaris, Hepatocyte
CONDITION_SET: read-out: Drug metabolism
ASSAY_READOUT: remaining at 2 h, 10 µM (%)
Respond numerically; units are % and should not be typed.

-- ask Could you tell me which remaining at 2 h, 10 µM is on file for CCOC(=O)[C@@H](Cc1cn(C)c2ccccc12)NC(=O)[C@@H](N)CC(C)C.Cl ?
-- reply 1.1

###

SYSTEM_UNDER_TEST: Cytochrome P450 2C9 (Homo sapiens)
Sequence (P11712 whole entry): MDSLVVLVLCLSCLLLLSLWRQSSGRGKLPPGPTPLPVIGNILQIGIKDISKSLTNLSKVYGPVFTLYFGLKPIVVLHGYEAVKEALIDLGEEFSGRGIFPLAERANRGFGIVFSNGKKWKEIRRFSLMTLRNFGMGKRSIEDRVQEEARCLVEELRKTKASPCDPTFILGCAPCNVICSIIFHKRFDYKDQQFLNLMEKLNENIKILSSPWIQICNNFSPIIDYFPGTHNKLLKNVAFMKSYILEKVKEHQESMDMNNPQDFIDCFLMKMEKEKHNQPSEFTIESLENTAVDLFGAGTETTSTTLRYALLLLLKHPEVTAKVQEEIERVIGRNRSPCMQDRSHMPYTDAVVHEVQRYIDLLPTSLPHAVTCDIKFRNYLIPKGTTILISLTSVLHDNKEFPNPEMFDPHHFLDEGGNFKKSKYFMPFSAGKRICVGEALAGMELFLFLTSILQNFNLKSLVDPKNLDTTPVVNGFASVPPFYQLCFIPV
METHOD_NOTES: Inhibition of CYP2C9 in human hepatocytes
ASSAY_READOUT: IC50

-- ask Given the entry CCOC(=O)[C@@H](Cc1cn(C)c2ccccc12)NC(=O)[C@@H](N)CC(C)C.Cl , report its measured IC50.
-- reply > 50 µM
